DC50 for assorted compounds
- system name: IKZF2 (Homo sapiens (Human), UniProt Q96SW2+Q9UKS7)
- Sequence (Q9UKS7 whole entry): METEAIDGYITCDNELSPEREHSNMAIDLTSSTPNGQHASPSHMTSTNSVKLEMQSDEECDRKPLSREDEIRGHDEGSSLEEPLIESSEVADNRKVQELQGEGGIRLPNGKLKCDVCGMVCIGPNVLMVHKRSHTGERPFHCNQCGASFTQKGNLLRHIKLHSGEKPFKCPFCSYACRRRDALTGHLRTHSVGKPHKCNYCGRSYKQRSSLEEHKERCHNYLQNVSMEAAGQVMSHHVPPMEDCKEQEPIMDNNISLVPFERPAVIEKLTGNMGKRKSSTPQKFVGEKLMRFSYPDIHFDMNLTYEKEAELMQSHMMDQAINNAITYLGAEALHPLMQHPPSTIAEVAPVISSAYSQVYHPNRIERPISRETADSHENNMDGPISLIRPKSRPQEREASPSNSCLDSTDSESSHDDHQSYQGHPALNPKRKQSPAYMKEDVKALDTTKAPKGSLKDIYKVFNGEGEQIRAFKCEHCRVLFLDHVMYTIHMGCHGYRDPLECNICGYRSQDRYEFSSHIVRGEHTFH
- Sequence (Q96SW2 whole entry): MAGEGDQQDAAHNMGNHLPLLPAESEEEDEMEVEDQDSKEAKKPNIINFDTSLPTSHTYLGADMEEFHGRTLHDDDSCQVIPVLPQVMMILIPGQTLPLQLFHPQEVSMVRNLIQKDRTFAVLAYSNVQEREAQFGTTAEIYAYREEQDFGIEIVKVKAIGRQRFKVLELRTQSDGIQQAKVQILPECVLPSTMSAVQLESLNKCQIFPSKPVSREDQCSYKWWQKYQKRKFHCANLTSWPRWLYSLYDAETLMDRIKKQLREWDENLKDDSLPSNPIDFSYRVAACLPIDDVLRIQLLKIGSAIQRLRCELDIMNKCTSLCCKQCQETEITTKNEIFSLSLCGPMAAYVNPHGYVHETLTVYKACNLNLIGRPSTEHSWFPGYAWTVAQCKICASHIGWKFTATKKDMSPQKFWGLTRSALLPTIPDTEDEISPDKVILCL
- Sequence (Q16531 whole entry partner): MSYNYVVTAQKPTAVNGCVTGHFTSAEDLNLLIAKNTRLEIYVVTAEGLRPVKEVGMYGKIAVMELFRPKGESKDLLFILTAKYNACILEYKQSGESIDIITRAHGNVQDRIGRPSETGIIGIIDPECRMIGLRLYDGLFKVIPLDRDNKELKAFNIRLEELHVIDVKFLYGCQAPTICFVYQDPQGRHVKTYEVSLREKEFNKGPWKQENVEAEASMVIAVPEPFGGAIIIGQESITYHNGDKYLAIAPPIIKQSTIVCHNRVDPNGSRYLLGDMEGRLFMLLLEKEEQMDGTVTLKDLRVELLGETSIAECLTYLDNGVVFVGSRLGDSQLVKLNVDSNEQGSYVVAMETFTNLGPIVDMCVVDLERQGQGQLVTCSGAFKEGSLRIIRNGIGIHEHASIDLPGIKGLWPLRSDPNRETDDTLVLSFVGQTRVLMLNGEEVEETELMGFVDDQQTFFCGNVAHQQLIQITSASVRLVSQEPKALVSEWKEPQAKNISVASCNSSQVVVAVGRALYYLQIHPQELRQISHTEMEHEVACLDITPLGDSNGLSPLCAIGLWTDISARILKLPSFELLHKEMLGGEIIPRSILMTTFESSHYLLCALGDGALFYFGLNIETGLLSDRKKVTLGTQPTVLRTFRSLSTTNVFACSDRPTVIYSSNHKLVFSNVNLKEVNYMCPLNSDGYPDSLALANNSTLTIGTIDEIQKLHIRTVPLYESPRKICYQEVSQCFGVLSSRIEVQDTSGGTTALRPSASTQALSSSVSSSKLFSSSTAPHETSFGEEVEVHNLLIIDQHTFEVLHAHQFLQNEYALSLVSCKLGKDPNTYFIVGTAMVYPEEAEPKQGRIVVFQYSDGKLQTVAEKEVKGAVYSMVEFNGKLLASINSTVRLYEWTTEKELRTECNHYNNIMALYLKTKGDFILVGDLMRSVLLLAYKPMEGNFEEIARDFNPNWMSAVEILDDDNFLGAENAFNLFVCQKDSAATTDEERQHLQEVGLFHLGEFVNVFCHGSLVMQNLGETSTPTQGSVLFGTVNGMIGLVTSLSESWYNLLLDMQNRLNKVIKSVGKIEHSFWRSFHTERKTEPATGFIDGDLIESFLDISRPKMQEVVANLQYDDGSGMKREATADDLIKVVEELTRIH
- experimental protocol: IKZF2 HiBiT Assay (Jurkat-IKZF2-HiBiT cell line)
- Assay type: cell-based
- settings: Jurkat-IKZF2-HiBiT cells, 24 hours; read-out: HiBit assay degradation analysis DC50

{"compound": "Cn1cc(-c2cccc(CN3CCC4(CC3)OCc3c4ccc4c3CN(C3CCC(=O)NC3=O)C4=O)c2)cn1 (centres unmarked) [Compound A259]", "reported result": "> 500 nM"}

DC50 reading for O=C1CC[C@H](N2Cc3c(ccc4c3OCC43CCN(C[C@H]4C[C@@H](Oc5ccc(F)cc5)C4)CC3)C2=O)C(=O)N1 [Compound A358] : > 500 nM

DC50 reading for Cn1cc(-c2cccc(CN3CCC4(CC3)CNc3c4ccc4c3CN(C3CCC(=O)NC3=O)C4=O)c2)cn1 (centres unmarked) [Compound A309] : > 500 nM

DC50 reading for O=C1CCC(N2Cc3c(ccc4c3OCC43CCN(Cc4cccc(Oc5ccccn5)c4)CC3)C2=O)C(=O)N1 (centres unmarked) [Compound A101] : < 50 nM

DC50 reading for O=C1CCC(N2Cc3c(ccc4c3OCC43CCN(Cc4nn(CC5COCCO5)c5ccccc45)CC3)C2=O)C(=O)N1 (centres unmarked) [Compound A328] : < 50 nM

DC50 reading for O=C1CC[C@H](N2Cc3c(ccc4c3OCC43CCN(Cc4cccc(-c5cnn(CC6COC6)c5)c4)CC3)C2=O)C(=O)N1 [Compound A271] : > 500 nM

DC50 reading for CC1(C)CCc2cccc(CN3CCC4(CC3)COc3c4ccc4c3CN(C3CCC(=O)NC3=O)C4=O)c2O1 (centres unmarked) [Compound A327] : 50 to 200 nM

DC50 reading for N#CCc1ccc(CN2CCC3(CC2)COc2c3ccc3c2CN(C2CCC(=O)NC2=O)C3=O)cc1 (centres unmarked) [Compound A196] : 50 to 200 nM

DC50 reading for CCc1ccc(CN2CCC3(CC2)COc2c3ccc3c2CN(C2CCC(=O)NC2=O)C3=O)cc1 (centres unmarked) [Compound A16] : > 500 nM

DC50 reading for O=C1CCC(N2Cc3c(ccc4c3OCCC43CCN(Cc4ccc(Cl)cc4F)CC3)C2=O)C(=O)N1 (centres unmarked) [Compound A10] : > 500 nM

DC50 reading for Cc1nnc(-c2cccc(CN3CCC4(CC3)COc3c4ccc4c3CN(C3CCC(=O)NC3=O)C4=O)c2)o1 (centres unmarked) [Compound A151] : 200 to 500 nM
